experiment: Plasma protein binding (PPB), human; type: in vitro ADME; details: read-out: PPB (H) (converted)
MEASURED_METRIC: fraction unbound

Use these answered entries as a reference point.
Dear colleague, I am looking for the recorded fraction unbound of the following compound: C[C@H](NC(=O)Nc1ccc2c(c1)CC(c1ccc3c(c1)CNC3)S2(=O)=O)c1ccccc1 (stereo partly shown) [H1264] 0.221

// same read-out, input: COc1cc(S(=O)(=O)Cc2ccc3c(c2)CN(C)C3)ccc1NC(=O)NC(C)c1ccccc1 (stereo not shown) [H1388] 0.031

Queued: COc1cc(S(=O)(=O)Cc2ccc3c(c2)CNC3)ccc1NC(=O)NC(C)c1ccccc1F.O=C(O)C(F)(F)F (stereo not shown) [H1420] 0.028

More entries:
Entry under review: CC(NC(=O)Nc1ccc(S(=O)(=O)Nc2ccc3c(c2)CCN(C)C3)cc1)c1cccc(Cl)c1Cl (stereo not shown) [H1333] . Reported fraction unbound? 0.0011

----------
molecular target: recombinant human ghrelin receptor (HEK293/GRLN) (Homo sapiens); construct: expressed in transfected cells; assay: Ghrelin inverse agonist potency (EC50) with IP-1 (IP-One HTRF) assay; assay type: cell-based; conditions: ghrelin inverse agonist potency, IP-1 assay; read-out: Activity EC50
Sequence (Q92847 whole entry): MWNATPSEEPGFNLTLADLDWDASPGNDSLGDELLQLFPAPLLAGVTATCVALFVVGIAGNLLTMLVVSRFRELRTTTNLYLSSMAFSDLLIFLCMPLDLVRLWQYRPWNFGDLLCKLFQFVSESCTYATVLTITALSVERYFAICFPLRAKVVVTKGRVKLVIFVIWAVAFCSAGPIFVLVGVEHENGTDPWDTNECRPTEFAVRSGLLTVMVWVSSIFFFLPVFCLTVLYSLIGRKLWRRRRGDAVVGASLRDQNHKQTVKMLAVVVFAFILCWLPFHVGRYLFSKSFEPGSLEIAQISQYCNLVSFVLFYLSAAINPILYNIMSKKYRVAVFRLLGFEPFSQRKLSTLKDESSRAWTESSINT
# note: exactly 0.01 µM is not below, so it is 0.0; use 1.0 for EC50 strictly under it

A record lists CC(c1ccccc1)N(O)C(=O)Nc1ccc(S(=O)(=O)Cc2ccc3c(c2)CN(C)C3)cc1 (centres unmarked) [H1527] . Is its EC50 below 0.01 µM? 0.0

More entries:
Input COc1cc(S(=O)(=O)Cc2ccc3c(c2)CN(C)C3)ccc1NC(=O)N(O)C(C)c1ccccc1 (centres unmarked) ; condition: EC50 strictly below 0.01 µM. Does it hold? 1.0

Next up: `CN1Cc2ccc(CS(=O)(=O)c3ccc(NC(=O)N(O)Cc4ccccc4)cc3)cc2C1` 0.0

Now the compound CC(NC(=O)Nc1ccc(S(=O)(=O)Cc2ccc3c(c2)C(F)(F)CN(C)C3)cc1)c1ccccc1 (centres unmarked) 0.0

Now consider COc1cc(NC(=O)NC(C)c2ccccc2)ccc1S(=O)(=O)Cc1ccc2c(c1)CN(C)C2 (centres unmarked) and answer again. 1.0

Record: CC(NC(=O)Nc1ccc(S(=O)(=O)Cc2ccc3c(c2)CNC3)cc1-c1ccncc1)c1ccccc1 (centres unmarked) 0.0

----------
assay: Metabolic stability in human liver microsomes; type: in vitro ADME
MEASURED_METRIC: Metabolic Stability Study H = human (µL/min/mg)
Unit µL/min/mg implied. Number only.

# Metabolic Stability Study H = human lookup, item CCN1Cc2ccc(C(C)S(=O)(=O)c3ccc(NC(=O)NC(C)c4ccccc4)cc3)cc2C1 (centres unmarked) [H1234] 149.8

----------
target: recombinant human ghrelin receptor (HEK293/GRLN) (Homo sapiens); construct: expressed in transfected cells; assay: Ghrelin inverse agonist potency (EC50) with IP-1 (IP-One HTRF) assay; format: cell-based; settings: ghrelin inverse agonist potency, IP-1 assay; read-out: Activity EC50
pEC50: −log10 of the molar value.
If the reported pEC50 equals or exceeds 8, assign criterion met. If not, assign criterion not met.

Worked cases, answers included:
hey, is pEC50 for this one >= 8? CC(NC(=O)Nc1ccc(S(=O)(=O)Cc2ccc3c(c2)CNC3)c(C(N)=O)c1)c1ccccc1 (stereo not shown) criterion not met

For CC(NC(=O)Nc1ccc(S(=O)(=O)CC2=CCC3CCC2N3C(C)C)cc1)c1cccc(Cl)c1Cl (stereo not shown) then? criterion not met

What do you have for CC(NC(=O)N(O)c1ccc(S(=O)(=O)Cc2ccc3c(c2)CN(C)C3)cc1)c1ccccc1 (stereo not shown) ? criterion not met

Here is the next compound: CC(NC(=O)N(O)c1ccc(S(=O)(=O)Cc2ccc3c(c2)CNC3)cc1)c1ccccc1 (stereo not shown) criterion not met

Can you handle CC(c1ccccc1)N(O)C(=O)Nc1ccc(S(=O)(=O)Cc2ccc3c(c2)CNC3)cc1 (stereo not shown) [H1472] next? criterion met

***
Given the entry CC(NC(=O)Nc1ccc(S(=O)(=O)Cc2ccc3c(c2)CNC3)c(C(=O)O)c1)c1ccccc1 (stereo not shown) , answer whether its pEC50 meets or surpasses 8. criterion not met

What would you report for NC(=O)C(NC(=O)Nc1ccc(S(=O)(=O)Cc2ccc3c(c2)CNC3)cc1)c1ccccc1 (stereo not shown) ? criterion not met

Also check CC(NC(=O)Nc1ccc(S(=O)(=O)Cc2ccc3c(c2)CNC3)c(-c2ncco2)c1)c1ccccc1 (stereo not shown) criterion not met

Next compound: CC(NC(=O)Nc1ccc(S(=O)(=O)Cc2ccc3c(c2)CN(C)C3)cc1CO)c1ccccc1 (stereo not shown) criterion not met

Now consider CC(NC(=O)Nc1ccc(S(=O)(=O)Cc2ccc3c(c2)CNC3)c(Cl)c1)c1ccccc1 (stereo not shown) and answer again. criterion met
